Test Target: T1, Suc-AAPK-pNA
T1 chain: AAPK
Test Settings: scale: relative to the substrate with the highest activity
Assign class by relative activity (initial increase in OD405): not lower than 0.08 means MET; lower than 0.08 means NOT MET.

protein="Glutamyl endopeptidase blaSE from Bacillus licheniformis (protein) SVIGSDDRTRVTNTTAYPYRAIVHISSSIGSCTGWMIGPKTVATAGHCIYDTSSGSFAGTATVSPGRNGTSYPYGSVKSTRYFIPSGWRSGNTNYDYGAIELSEPIGNTVGYFGYSYTTSSLVGTTVTISGYPGDKTAGTQWQHSGPIAISETYKLQYAMDTYGGQSGSPVFEQSSSRTNCSGPCSLAVHTNGVYGGSSYNRGTRITKEVFDNLTNWKNSAQ" assigned_category="NOT MET"
protein="Trypsin from Fusarium oxysporum (protein) IVGGTSASAGDFPFIVSISRNGGPWCGGSLLNANTVLTAAHCVSGYAQSGFQIRAGSLSRTSGGITSSLSSVRVHPSYSGNNNDLAILKLSTSIPSGGNIGYARLAASGSDPVAGSSATVAGWGATSEGGSSTPVNLLKVTVPIVSRATCRAQYGTSAITNQMFCAGVSSGGKDSCQGDSGGPIVDSSNTLIGAVSWGNGCARPNYSGVYASVGALRSFIDTYA" assigned_category=MET
protein="Glutamyl endopeptidase II sprE from Streptomyces griseus (protein) VLGGGAIYGGGSRCSAAFNVTKGGARYFVTAGHCTNISANWSASSGGSVVGVREGTSFPTNDYGIVRYTDGSSPAGTVDLYNGSTQDISSAANAVVGQAIKKSGSTTKVTSGTVTAVNVTVNYGDGPVYNMVRTTACSAGGDSGGAHFAGSVALGIHSGSSGCSGTAGSAIHQPVTEALSAYGVTVY" assigned_category="NOT MET"
protein="Subtilisin 309 variant from Bacillus clausii (protein) AQSVPWGIERVQAPAAHNRGLTGSGVKVAVLDTGISTHPDLRIRGGASFVPGEPSTQDGNGHGTHVAGTIAALDNSIGVLGVAPSEALYAVKVLGASGSGSVSSIAQGLEWAGNNGMHVANLSLGSPSPSATLEQAVNSATSRGVLVVAASGNSGAGSISYPARYANAMAVGATDQNNNRASFSQYGAGLDIVAPGVNILSTWPGSTYASLNGTSMATPHVAGAAALVKQKNPSWSNVQIRNHLKNTATSLGDTWEYGSGLVNAEAATR" assigned_category="NOT MET"
